Target: hTMEM16Aabc (Homo sapiens, UniProt Q5XXA6, DEL476-501)
Construct: expressed in transfected cells
Sequence (Q5XXA6 with tags, fused parts or gaps isoform Q5XXA6-5 DEL539-564): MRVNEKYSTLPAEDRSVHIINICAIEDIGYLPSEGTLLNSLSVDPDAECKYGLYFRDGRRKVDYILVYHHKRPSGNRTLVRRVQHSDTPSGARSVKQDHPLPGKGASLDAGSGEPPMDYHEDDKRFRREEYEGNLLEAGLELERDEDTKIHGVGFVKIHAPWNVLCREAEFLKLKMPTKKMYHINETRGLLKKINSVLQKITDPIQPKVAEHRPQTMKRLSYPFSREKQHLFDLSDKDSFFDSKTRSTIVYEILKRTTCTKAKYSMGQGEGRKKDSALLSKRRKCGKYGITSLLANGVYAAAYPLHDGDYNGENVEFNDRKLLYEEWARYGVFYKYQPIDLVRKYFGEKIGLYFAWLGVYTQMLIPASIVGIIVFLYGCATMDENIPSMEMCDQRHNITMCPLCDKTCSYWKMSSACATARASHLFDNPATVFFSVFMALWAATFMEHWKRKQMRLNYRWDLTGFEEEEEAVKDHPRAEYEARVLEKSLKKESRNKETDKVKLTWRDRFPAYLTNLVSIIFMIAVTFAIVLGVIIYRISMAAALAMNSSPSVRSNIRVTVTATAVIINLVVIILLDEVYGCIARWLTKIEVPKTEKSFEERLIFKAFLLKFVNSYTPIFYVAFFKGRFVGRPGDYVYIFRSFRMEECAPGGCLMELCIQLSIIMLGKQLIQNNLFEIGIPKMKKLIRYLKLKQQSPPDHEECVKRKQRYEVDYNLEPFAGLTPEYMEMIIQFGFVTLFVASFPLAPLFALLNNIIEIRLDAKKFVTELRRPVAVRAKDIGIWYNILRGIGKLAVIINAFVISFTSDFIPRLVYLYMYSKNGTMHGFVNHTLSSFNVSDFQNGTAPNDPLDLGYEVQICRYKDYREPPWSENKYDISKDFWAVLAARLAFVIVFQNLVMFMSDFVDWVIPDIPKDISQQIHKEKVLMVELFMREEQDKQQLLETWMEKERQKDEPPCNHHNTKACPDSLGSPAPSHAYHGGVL
Assay: Whole-cell patch clamp (QPatch), FRT-hTMEM16Aabc cells
Format: cell-based
Conditions: IC50 (printed in Figure 1, concentration-response curves), hTMEM16Aabc currents in FRT cells; [Ca2+]i clamped at 415 nM
MEASURED_METRIC: IC50 (µM)
State just the number; it will be interpreted in µM.

Form: Entry = CCc1oc2ccccc2c1C(=O)c1cc(Br)c(O)c(Br)c1 [benzbromarone] | System = hTMEM16Aabc (Homo sapiens, UniProt Q5XXA6, DEL476-501) | IC50 = ____
3.05
